Below, each entry is listed alongside its reported growth.
Test system: DU-145 prostate
Assay: NCI-60 one-dose screen, 48 h (100 = growth as untreated, 0 = no growth, -100 = all killed)
Settings: 10 µM unless noted
Procedure: Cells are grown in 96 well plates and exposed to the test compound for 48 hours. Compounds are tested at a single concentration, which is 10^-5 M for most compounds. The reported endpoint is percent growth (GI% or GIPRCNT), where numbers from 0 - 100% represent growth inhibition, and numbers from -100% - 0 represent cell death. For example, a value of 40 represents 60% growth inhibition. A value of 0 means no net growth occurred over the course of the experiment. […]
Compounds without any hit were thinned out: in the full panel of roughly 83,000, 20% have a hit.
Kindly provide the numeric value in % only, without the unit symbol.

Some solved entries appear below for comparison.
>  <compound>
O=C1c2ccccc2CCc2ccccc21

>  <units.text>
%

>  <growth>
104

$$$$
>  <compound>
CC(=O)Nc1ccc(S(=O)(=O)Cl)cc1

>  <units.text>
%

>  <growth>
107

$$$$
>  <compound>
O=c1c2c(c3ccccc3n1-c1ccccc1)NC(=S)NC2c1ccccc1 (configuration not stated)

>  <units.text>
%

>  <growth>
115

$$$$
>  <compound>
O=C(Nc1ccc(-n2cc(-c3ccncc3)c(-c3ccc(Cl)c(O)c3)n2)cc1)c1ccc(Cl)c(C(F)(F)F)c1

>  <units.text>
%

>  <growth>
26.4

$$$$

Read the entry `O=C(NCCCl)Nc1nccnc1OCc1ccc(F)cc1` and write its reported growth.
114

Read the entry `COc1cc(OC)c(NC(=O)n2ncc3cc(Nc4ncnc5ccccc45)ccc32)cc1Cl` and write its reported growth.
56.9

Read the entry `O=C(/C=C/c1ccc(Br)cc1)c1ccccc1` and write its reported growth.
95.6

Where do the numbers come from? From PubChem BioAssay (NCI).
